Numbers sourced from PubChem BioAssay (Tox21).

assay: qHTS assay to identify aromatase inhibitors - cell viability counter screen (AID 743084); settings: MCF-7 aro ERE viability, CellTiter-Fluor, 24 h; series mostly up to 70.3 µM;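 note: cells stimulated with testosterone during compound exposure; nearly all actives have a fitted effect of over 55% in size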
Records with an inconclusive call do not appear. Calls of active or inactive are those of the source. Calls come from the whole dose curve; as a rule, active = well fitted cell-killing curve with a large enough effect in the repeat runs; inconclusive = weak or mixed curves, or effect the other way; inactive = no such curve, though single readings can be large or run the other way.
The reply should name one outcome from active, inactive

Example entries begin here.
| Compound | Answer label |
| --- | --- |
| CCC(C)c1cc([N+](=O)[O-])cc([N+](=O)[O-])c1OC(=O)C=C(C)C (stereo not drawn) | active |
| Cc1cc(C(F)(C(F)(F)F)C(F)(F)F)ccc1NC(=O)c1cccc(I)c1C(=O)NC(C)(C)CS(C)(=O)=O | inactive |
| CN(C)CCc1c[nH]c2cccc(O)c12 | inactive |
| CCCN(CCC)CCc1c[nH]c2ccccc12 | inactive |
| CN(C)c1ccc(N=Nc2ccccc2)cc1 | active |

(Q) Please state the recorded outcome for this compound: `COc1ccc(N)cc1N`
(A) active

(Q) Please state the recorded outcome for this compound: `N#CNC#N`
(A) inactive

###

Assay: qHTS assay to identify small molecule antagonists of the vitamin D receptor (VDR) signaling pathway - cell viability counter screen (AID 743225); note: nearly all actives have a fitted effect of over 50% in size
Settings: VDR-bla HEK293T viability, CellTiter-Glo luminescence, 16 h; series mostly up to 61 µM
Text: U.S. Tox21 Program National Center for Advancing Translational Sciences [NCATS] NIH Chemical Genomics Center [NCGC] U.S. Environmental Protection Agency [EPA] National Institutes of Environmental Health Sciences [NIEHS] National Toxicology Program [NTP] U.S. Food and Drug Administration [FDA] Tox21 Assay Overview: The vitamin D receptor (VDR), a member of nuclear hormone receptor superfamily, plays a critical role in calcium homeostasis and bone metabolism. […]
Inconclusive results are not listed. Active and inactive are the calls of the source. The call rests on the fitted dose curve; in most records, active means well fitted cell-killing curve with a large enough effect in the repeat runs; inconclusive means weak or mixed curves, or effect the other way; inactive means no such curve, though single readings can be large or run the other way.
The reply should name one outcome from True = active, False = inactive

Example entries begin here.
| Compound | Answer label |
| --- | --- |
| CC[C@H](C)[C@H]1O[C@]2(C=C[C@@H]1C)C[C@@H]1C[C@@H](C/C=C(\C)[C@@H](O[C@H]3C[C@H](OC)[C@@H](O[C@H]4C[C@H](OC)[C@@H](O)[C@H](C)O4)[C@H](C)O3)[C@@H](C)/C=C/C=C3\CO[C@@H]4[C@H](O)C(C)=C[C@@H](C(=O)O1)[C@]34O)O2 | True |
| Nc1ccccc1C(=O)Oc1ccc2ccccc2c1 | False |
| CN(C)CCc1c[nH]c2ccc(O)cc12 | False |
| c1ccc2cc3c(cc2c1)-c1cccc2cccc-3c12 | False |

(Q) Please state the recorded outcome for this compound: `CN(C)C1CSSSC1`
(A) False

(Q) Please state the recorded outcome for this compound: `CC(=O)Nc1ccc2c(c1)Cc1ccccc1-2`
(A) False

(Q) Please state the recorded outcome for this compound: `[Hg+2].[I-].[I-]`
(A) True

###

assay: qHTS assay to identify small molecule agonists of the constitutive androstane receptor (CAR) signaling pathway - cell viability counter screen (AID 1224836); conditions: HepG2-CYP2B6-hCAR viability, CellTiter-Fluor, 23 h, PK11195 added to every well; series mostly up to 92.4 µM; note: nearly all actives have a fitted effect of over 45% in size
Inconclusive results are not listed. Active and inactive are the calls of the source. Calls follow the shape of the dose curve; as a rule, active = well fitted cell-killing curve with a large enough effect in the repeat runs; inconclusive = weak or mixed curves, or effect the other way; inactive = flat fitted curve, though single readings scatter.
The reply should name one outcome from active, inactive

(Q) Please state the recorded outcome for this molecule: `N#Cc1ccccc1Cl`
(A) inactive

(Q) Please state the recorded outcome for this molecule: `CC[C@H](C)[C@H]1O[C@]2(C=C[C@@H]1C)C[C@@H]1C[C@@H](C/C=C(\C)[C@@H](O[C@H]3C[C@H](OC)[C@@H](O[C@H]4C[C@H](OC)[C@@H](O)[C@H](C)O4)[C@H](C)O3)[C@@H](C)/C=C/C=C3\CO[C@@H]4[C@H](O)C(C)=C[C@@H](C(=O)O1)[C@]34O)O2`
(A) active

(Q) Please state the recorded outcome for this molecule: `COc1ccc([N+](=O)[O-])cc1O`
(A) inactive

(Q) Please state the recorded outcome for this molecule: `O=C(CCl)Nc1ccccc1`
(A) active

(Q) Please state the recorded outcome for this molecule: `O=[N+]([O-])c1cc(C(F)(F)F)c(Cl)c([N+](=O)[O-])c1Cl`
(A) active

(Q) Please state the recorded outcome for this molecule: `CC(C)[C@H](C(=O)O[C@H](C#N)c1cccc(Oc2ccccc2)c1)c1ccc(Cl)cc1`
(A) inactive

(Q) Please state the recorded outcome for this molecule: `c1ccc2cc3c(cc2c1)-c1cccc2cccc-3c12`
(A) inactive
